Recorded values, source patent US8791132B2.

Molecular target: rat adrenergic α1B receptor (Rattus norvegicus, UniProt P15823)
Construct: rat adrenergic α1B receptor obtained from Wistar Rat liver; from tissue; host or cells: Wistar rat liver
Sequence (P15823 1-515): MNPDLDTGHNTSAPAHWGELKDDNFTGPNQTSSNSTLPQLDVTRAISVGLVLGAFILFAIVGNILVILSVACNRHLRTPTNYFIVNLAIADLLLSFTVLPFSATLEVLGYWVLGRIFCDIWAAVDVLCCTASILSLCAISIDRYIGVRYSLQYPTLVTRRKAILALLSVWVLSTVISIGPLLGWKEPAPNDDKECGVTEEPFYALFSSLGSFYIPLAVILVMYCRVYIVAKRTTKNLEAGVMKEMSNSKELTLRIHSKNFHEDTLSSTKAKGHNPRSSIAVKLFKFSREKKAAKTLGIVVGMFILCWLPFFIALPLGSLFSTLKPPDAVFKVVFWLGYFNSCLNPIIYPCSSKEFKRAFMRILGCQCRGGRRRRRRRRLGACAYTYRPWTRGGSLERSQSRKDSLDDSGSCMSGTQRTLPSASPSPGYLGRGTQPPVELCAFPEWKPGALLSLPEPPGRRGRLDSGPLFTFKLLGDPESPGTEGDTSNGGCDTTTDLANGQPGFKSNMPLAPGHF
Assay: Radioligand binding, adrenergic α1B ([3H]Prazosin)
Conditions: read-out: Percentage inhibition of ligand binding, Adrenergic α1B (0.1 μM), compound at 0.1 μM; [3H]Prazosin; repeat datapoints each shown
Result type: inhibition at 0.1 µM (%)

Record excerpt, results attached:
[[record]]
compound = "Cc1ccc2c(c1)c1c(n2CC(OCC(=O)O)c2ccncc2)CCN2CCCC12 (centres unmarked)"
result_type = "inhibition at 0.1 µM"
experimental_result = 4

[[record]]
compound = "Cc1cc(C)c2c(c1)c1c(n2CC(O)c2ccncc2)CCN2CCCC12 (single isomer, unassigned) [II-125b]"
result_type = "inhibition at 0.1 µM"
experimental_result = 97

[[record]]
compound = "Cc1ccc2c(c1)c1c(n2CC(N)c2ccncc2)CCN(C)CC1 (single isomer, unassigned) [154b]"
result_type = "inhibition at 0.1 µM"
experimental_result = 95

[[record]]
compound = "CN1CCc2c(c3ncccc3n2CC(C)(O)c2cccnc2)C1 (centres unmarked)"
result_type = "inhibition at 0.1 µM"
experimental_result = -4

[[record]]
compound = "C/C(=C\\n1c2c(c3cc(C)ccc31)CN(C)CC2)c1cccc2ccccc12"
result_type = "inhibition at 0.1 µM"
experimental_result = 12

[[record]]
compound = "Cc1cnc2c(c1)c1c(n2CC(O)c2ccc(C#N)cc2)CCN(C)C1 (centres unmarked)"
result_type = "inhibition at 0.1 µM"
experimental_result = 49


A: Cc1cc2c3c(n(CC(C)(O)c4cccnc4)c2cc1Cl)CCN(C)C3 (single isomer, unassigned) [II-123a]
B: Cc1ccc2c(c1)c1c(n2CC(O)c2cccnc2)CCN2CCCC12 (centres unmarked)
Request: Pick one: A or B . Which one has the lower reported inhibition at 0.1 µM? Kindly give the label for the entry you pick.
Response: A

---

biological target: human recombinant adrenergic α2B receptor (Homo sapiens); construct: expressed in transfected cells; host or cells: CHO-K1; assay: Radioligand binding, adrenergic α2B ([3H]Rauwolscine); conditions: compound at 0.03 μM; [3H]Rauwolscine; repeat datapoints each shown; 0.03 µM
Sequence (P18089 whole entry): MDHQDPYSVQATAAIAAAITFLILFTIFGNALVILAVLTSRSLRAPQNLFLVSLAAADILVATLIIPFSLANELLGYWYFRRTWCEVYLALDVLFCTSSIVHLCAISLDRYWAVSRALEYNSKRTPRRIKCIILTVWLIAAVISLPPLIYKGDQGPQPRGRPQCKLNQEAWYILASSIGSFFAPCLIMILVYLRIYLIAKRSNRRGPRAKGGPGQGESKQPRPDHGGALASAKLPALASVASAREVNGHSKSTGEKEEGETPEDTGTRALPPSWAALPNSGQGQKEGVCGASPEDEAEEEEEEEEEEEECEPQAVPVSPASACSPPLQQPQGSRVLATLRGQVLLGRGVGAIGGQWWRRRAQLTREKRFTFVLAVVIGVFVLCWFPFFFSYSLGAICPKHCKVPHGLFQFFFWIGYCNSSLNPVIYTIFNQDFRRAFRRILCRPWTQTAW
Result type: Percentage inhibition of ligand binding, Adrenergic α2B (0.03 μM) (%)

Record excerpt, results attached:
[[record]]
compound = "Cc1ccc2c(c1)c1c(n2CC(CC(O)C(C)(C)C)c2ccncc2)CCN(C)C1 (single isomer, unassigned) [II-227c]"
experimental_result = 94

[[record]]
compound = "Cc1ccc2c(c1)c1c(n2CC(C)(O)c2cnccn2)CCN2CCCC12 (single isomer, unassigned) [176b]"
experimental_result = 67

[[record]]
compound = "Cc1cc2c3c(n(CC(C)(O)c4cccnc4)c2cc1Cl)CCN(C)C3 (single isomer, unassigned) [II-123b]"
experimental_result = 93

[[record]]
compound = "Cc1ccc2c(c1)c1c(n2CC(CC(O)C(C)(C)C)c2ccncc2)CCN(C)C1 (single isomer, unassigned) [II-227b]"
experimental_result = 18


1: Cc1ccc2c(c1)c1c(n2CC(C)(O)c2cccnc2)C(O)CN(C)C1 (single isomer, unassigned) [II-151b]
2: CN1CCc2c(c3cc(Cl)ccc3n2CC(C)(O)c2ccc(C(F)(F)F)nc2)C1 (single isomer, unassigned) [143b]
3: CC(O)(Cn1c2c(c3cc(Cl)ccc31)C1CCCN1CC2)c1cccnc1 (single isomer, unassigned) [II-130b]
4: CC1Cc2c(c3cc(Cl)ccc3n2CC(C)(O)c2cccnc2)CN1C (single isomer, unassigned) [II-147d]
Request: List by increasing Percentage inhibition of ligand binding, Adrenergic α2B (0.03 μM). Please respond with the labels ordered as the question requires.
Response: 4, 3, 2, 1
(4: 13%, 3: 33%, 2: 49%, 1: 78%)
